Where do these numbers come from? They come from patent US4613596A.

# test.name: Acute toxicity (LD50) in rat
# Assay type: in vivo
# particulars: in vivo, oral, 10 days observation, read-out: LD50, rat, oral admin.
Property: LD50 at 240 h; scope: individual compounds
Write the number in mg/kg without appending the unit.

> print(dat)
                            compound.smiles  value.measured
1  CN(C)Cc1ccc(CSCCNC(=C[N+](=O)[O-])N2CCCCCC2)o1            5530

Turning now to a further record.
Req: Value lookup for LD50 at 240 h; key = CN(C)Cc1ccc(CSCCNC(=C[N+](=O)[O-])N2CCC(Cc3ccccc3)CC2)o1
Resp: 5500

* * *

# test.name: Acute toxicity (LD50) in rat
# Format: in vivo
# particulars: in vivo, im, intramuscular, 10 days observation, read-out: LD50, rat, intram. admin.
experimental.readout: LD50 at 240 h (mg/kg)
Write the number in mg/kg without appending the unit.

Field: example entries. Status: answers known.
> print(dat)
                                   compound  value.measured
1  CN(C)Cc1ccc(CSCCNC(=C[N+](=O)[O-])N2CCCC2)o1            2200
2  CN(C)Cc1ccc(CSCCNC(=C[N+](=O)[O-])N2CCCCC2)o1            2100
3  CN(C)Cc1ccc(CSCCNC(=C[N+](=O)[O-])NC2CCCCCC2)o1            2200
4  CN(C)Cc1ccc(CSCCNC(=C[N+](=O)[O-])N2CCN(CCO)CC2)o1            2000
5  CN(C)Cc1ccc(CSCCNC(=C[N+](=O)[O-])N2CCOCC2)o1            2200
6  CN(C)Cc1ccc(CSCCNC(=C[N+](=O)[O-])NN2CCCCCC2)o1            2200

Req: Value lookup for LD50 at 240 h; key = CN(C)Cc1ccc(CSCCNC(=C[N+](=O)[O-])NC2CC3C=CC2C3)o1 (stereo not drawn)
Resp: 2100

Req: Value lookup for LD50 at 240 h; key = CN(C)Cc1ccc(CSCCNC(=C[N+](=O)[O-])N2CCC2)o1
Resp: 2200

Req: Value lookup for LD50 at 240 h; key = CN(C)Cc1ccc(CSCCNC(=C[N+](=O)[O-])N2CC2)o1
Resp: 2100
